molecular target: MYCN hairpin-G4 DNA; test: FIA using compound fluorescence (Ex 340/Em 500 nm), titration with unlabeled MYCN G4 DNA; type: binding, human; conditions: 100 nM compound titrated with folded unlabeled MYCN G4
experimentalReadout: pKd
Remember, pKd is on a log scale: it is -log10 of the molar concentration.

• COc1ccc(-c2noc(-c3ccc(NCCNc4c5ccc(Cl)cc5nc5ccc(OC)cc45)nn3)n2)cc1 [B32] = 6.51

[ask] Give a short answer stating reported pKd for COc1ccc(-c2noc(-c3ccc(NCCOCCOCCNc4c5ccc(Cl)cc5nc5ccc(OC)cc45)nn3)n2)cc1 [B38] .
[reply] 7.16

[ask] Using the record for COc1ccc(-c2noc(-c3ccc(NCCOCCNc4c5ccc(Cl)cc5nc5ccc(OC)cc45)nn3)n2)cc1 [B35] , state its measured pKd.
[reply] 7.42

[ask] Provide one value: measured pKd of COc1ccc2nc3cc(Cl)ccc3c(NCCCNCCCl)c2c1 [Acridine ICR 191, reference compound]
[reply] 5.98

[ask] Specify measured pKd for COc1ccc(-c2noc(-c3ccc(NCCCNc4c5ccc(Cl)cc5nc5ccc(OC)cc45)nn3)n2)cc1 [B33] .
[reply] 7.18

====

// reported pKd per item
target: MYCN G4 DNA; test: Fluorescence intensity assay (FIA) with 5′Cy5-labeled MYCN G4 DNA; assay type: binding, human; conditions: 5′Cy5-labeled MYCN G4 titrated with compound
For clarity, pKd is expressed as the negative log10 of concentration in mol/L.

- CCCN1CCN(c2nnc(-n3cccc3CNCCCN3CCCCCC3)s2)CC1: 4.68

Next compound, pKd to be filled in.
[ask] Give pKd for COc1ccc(-c2noc(-c3ccc(NCCCN4CCCC4)nn3)n2)cc1
[reply] 5.46

====

target: BCL2 HP-G4; assay: FIA binding test with BCL2 HP-G4 (parallel structure); details: FIA
experimentalReadout: Kd

[ask] Provide measured Kd value, entry: COc1ccc(-c2noc(-c3ccc(NCCCNc4c5ccc(Cl)cc5nc5ccc(OC)cc45)nn3)n2)cc1 [B33]
[reply] 258 nM

====

target: MYCN G4 DNA; assay: Surface plasmon resonance (SPR) with immobilized biotinylated MYCN G4 DNA; assay type: binding, human; conditions: MYCN hairpin G4, SPR titration; read-out: KD by SPR
experimentalReadout: log10 Kd (log10 of the value in nM)
A difference of one corresponds to tenfold Kd; all values are log10 with Kd in nM.

Sample answers from the record:
* COc1ccc(-c2noc(-c3ccc(NCCNc4c5ccc(Cl)cc5nc5ccc(OC)cc45)nn3)n2)cc1 [B32] | 2.48
* COc1ccc(-c2noc(-c3ccc(NCCOCCOCCNc4c5ccc(Cl)cc5nc5ccc(OC)cc45)nn3)n2)cc1 [B38] | 1.94
* COc1ccc(-c2noc(-c3ccc(NCCOCCNc4c5ccc(Cl)cc5nc5ccc(OC)cc45)nn3)n2)cc1 [B35] | 1.15

[ask] Fetch value of log10 Kd on MYCN G4 DNA for COc1ccc(-c2noc(-c3ccc(NCCCNc4c5ccc(Cl)cc5nc5ccc(OC)cc45)nn3)n2)cc1 [B33] .
[reply] 1.85

[ask] Please respond with reported log10 Kd (system MYCN G4 DNA) for COc1ccc2nc3cc(Cl)ccc3c(NCCCNCCCl)c2c1 [Acridine ICR 191, reference compound] .
[reply] 2.91
